For each of the compounds below, state its residual activity.
target entity: UniProt P11362
Sequence (P11362 whole entry, looked up): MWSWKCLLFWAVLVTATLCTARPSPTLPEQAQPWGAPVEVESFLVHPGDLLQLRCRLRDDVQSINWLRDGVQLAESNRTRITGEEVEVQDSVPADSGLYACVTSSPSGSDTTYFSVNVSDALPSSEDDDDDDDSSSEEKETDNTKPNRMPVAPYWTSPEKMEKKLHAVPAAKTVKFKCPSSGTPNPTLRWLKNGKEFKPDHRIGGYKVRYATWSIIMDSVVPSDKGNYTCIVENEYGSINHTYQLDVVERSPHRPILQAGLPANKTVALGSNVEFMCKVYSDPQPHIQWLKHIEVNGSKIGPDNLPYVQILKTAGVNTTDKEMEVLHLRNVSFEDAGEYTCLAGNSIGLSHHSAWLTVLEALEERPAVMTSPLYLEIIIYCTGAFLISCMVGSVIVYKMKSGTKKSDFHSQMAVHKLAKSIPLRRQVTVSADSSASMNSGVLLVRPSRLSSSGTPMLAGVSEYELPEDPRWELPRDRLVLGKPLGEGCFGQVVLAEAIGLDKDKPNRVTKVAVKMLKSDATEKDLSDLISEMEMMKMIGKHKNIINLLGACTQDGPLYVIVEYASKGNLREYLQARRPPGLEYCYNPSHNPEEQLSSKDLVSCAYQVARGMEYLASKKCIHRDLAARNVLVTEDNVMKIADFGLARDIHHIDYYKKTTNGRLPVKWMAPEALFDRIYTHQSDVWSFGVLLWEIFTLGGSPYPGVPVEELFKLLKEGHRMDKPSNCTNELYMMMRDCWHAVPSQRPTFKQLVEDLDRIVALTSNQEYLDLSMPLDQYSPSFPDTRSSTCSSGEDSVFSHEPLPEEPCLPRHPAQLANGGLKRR
test description: radiometric filter-binding kinase assay, Kinase HotSpot
condition notes: compound 0.5 µM; ATP 10 µM
Kindly provide the numeric value in % only, without the unit symbol.

Ask: What reported residual activity corresponds to `CC(C)[C@H](CO)Nc1nc(Nc2cc(N)cc(Cl)c2)c2ncn(C(C)C)c2n1` on UniProt P11362?
Result: 76.7

Ask: What reported residual activity corresponds to `O=C1NC(=O)C(c2c[nH]c3ccccc23)=C1c1c[nH]c2ccccc12` on UniProt P11362?
Result: 41.4

Ask: What reported residual activity corresponds to `CCn1cnc2c(Nc3cccc(Cl)c3)nc(N[C@@H]3CCCC[C@@H]3N)nc21` on UniProt P11362?
Result: 85.7

Ask: What reported residual activity corresponds to `CN([C@@H](Cc1ccc(OS(=O)(=O)c2cccc3cnccc23)cc1)C(=O)N1CCN(c2ccccc2)CC1)S(=O)(=O)c1cccc2cnccc12` on UniProt P11362?
Result: 103

Ask: What reported residual activity corresponds to `Cn1sc(=O)n(Cc2ccccc2)c1=O` on UniProt P11362?
Result: 95.6

Ask: What reported residual activity corresponds to `CN(C)C[C@H]1CCn2c(c(C3=C(c4cn(C)c5ccccc45)C(=O)NC3=O)c3ccccc32)C1` on UniProt P11362?
Result: 87.8

Ask: What reported residual activity corresponds to `CC(=O)O/N=C1\C(=C2\C(=O)Nc3cc(Br)ccc32)Nc2ccccc21` on UniProt P11362?
Result: 68.8

Ask: What reported residual activity corresponds to `O=C1Nc2ccccc2/C1=C1\Nc2ccccc2\C1=N/O` on UniProt P11362?
Result: 52.2

Ask: What reported residual activity corresponds to `CC(C)c1nn(-c2c(Cl)cccc2Cl)c2nc(Cc3ccc(OCCO)cc3)nc(O)c12` on UniProt P11362?
Result: 84.2

Ask: What reported residual activity corresponds to `Cn1cnc2cc3c(Nc4cccc(Br)c4)ncnc3cc21` on UniProt P11362?
Result: 89.6

---

target entity: GRK7 (human)
test description: radiometric filter-binding kinase assay, Kinase HotSpot
condition notes: compound 0.5 µM; ATP 10 µM
For each of the compounds below, state its residual activity.
Kindly provide the numeric value in % only, without the unit symbol.

Ask: What value of residual activity has been recorded for this entry: `COc1cc2ncnc(N3CCN(C(=O)Nc4ccc(Oc5ccccc5)cc4)CC3)c2cc1OC`
Result: 95.7

Ask: What value of residual activity has been recorded for this entry: `Cc1nc2cc3nc(-c4cccs4)cnc3cc2n1C`
Result: 96.6

Ask: What value of residual activity has been recorded for this entry: `Nc1nccc(-c2c(-c3ccc(F)cc3)ncn2C2CCNCC2)n1`
Result: 106

Ask: What value of residual activity has been recorded for this entry: `O=C1Cc2c([nH]c3ccc(Br)cc23)-c2ccccc2N1`
Result: 100

Ask: What value of residual activity has been recorded for this entry: `O=C1NC(=O)C(c2cn(CCCO)c3ncccc23)=C1c1cnccn1`
Result: 118

Ask: What value of residual activity has been recorded for this entry: `CN(C)C[C@H]1CCn2c(c(C3=C(c4cn(C)c5ccccc45)C(=O)NC3=O)c3ccccc32)C1`
Result: 40

Ask: What value of residual activity has been recorded for this entry: `CC(C)[C@H](CO)Nc1nc(Nc2cc(N)cc(Cl)c2)c2ncn(C(C)C)c2n1`
Result: 79.3

Ask: What value of residual activity has been recorded for this entry: `CCn1cnc2c(Nc3cccc(Cl)c3)nc(N[C@@H]3CCCC[C@@H]3N)nc21`
Result: 97.9

Ask: What value of residual activity has been recorded for this entry: `O=C(CCCc1ccc(-c2ccccc2F)cc1)Nc1ccc(O)cc1`
Result: 109

Ask: What value of residual activity has been recorded for this entry: `COc1ccc(CNC(=O)Nc2ncc([N+](=O)[O-])s2)cc1`
Result: 103

Ask: What value of residual activity has been recorded for this entry: `Oc1ccc(Nc2nc(-c3ccc(Cl)cc3)cs2)cc1`
Result: 109
